Test system: SGC-7901 (human gastric cancer cells)
methodNotes: MTT cancer cell growth inhibition
Type: cell-based
testContext: Homo sapiens, SGC-7901, 72 h, MTT, 72 hours incubation, SGC-7901 cells; read-out: GI50 SGC-7901
reportedEndpoint: GI50 (nM)

>>> df
                                  smilesstr  measureunit  resultvalue
0  C/C=C1\NC(=O)c2ccc(SCC)c(n2)CNC(=O)C[C@@H](/C=C/CCSC(=O)CCCCC)OC(=O)[C@H](C(C)C)NC1=O           nM           48

[I] CC(C)=C1NC(=O)c2cc(F)cc(n2)CNC(=O)C[C@@H](/C=C/CCS)OC(=O)[C@H](C(C)C)NC1=O
[II] C/C=C1\NC(=O)c2cc(SC)cc(n2)CNC(=O)C[C@@H](/C=C/CCS)OC(=O)[C@H](C)NC1=O
[III] C/C=C1\NC(=O)c2cccc(n2)CNC(=O)C[C@@H](/C=C/CCSC(=O)CCCCC)OC(=O)[C@H](C(C)C)NC1=O
Put the entries in order of GI50, starting with the largest number. Form field (ranking): labels in requested order. I, II, III

----------
System: HT1080 (human fibrosarcoma cells)
methodNotes: MTT cancer cell growth inhibition
Assay type: cell-based
testContext: Homo sapiens, HT-1080, 72 h, HT1080 cells, MTT, 72 hours incubation; read-out: GI50 HT1
reportedEndpoint: GI50 (nM)

Use these answered entries as a reference point.
In [3]: df
Out[3]:
                                   molecule  reportedendpoint  resultvalue
0  C/C=C1\NC(=O)c2ccc(SC)c(n2)CNC(=O)C[C@@H](/C=C/CCSC=O)OC(=O)[C@H](C(C)C)NC1=O              GI50           50
1  C/C=C1\NC(=O)c2nc(ccc2SC)CNC(=O)C[C@@H](/C=C/CCSC(=O)CCCCCCC)OC(=O)[C@H](C(C)C)NC1=O              GI50           80
2  C/C=C1\NC(=O)c2cc(SC)cc(n2)CNC(=O)C[C@@H](/C=C/CCSC(=O)CCCCCCC)OC(=O)[C@H](CC)NC1=O              GI50           60

[I] C/C=C1\NC(=O)c2cc(SC)cc(n2)CNC(=O)C[C@@H](/C=C/CCS)OC(=O)[C@H](C)NC1=O
[II] CCCCCCCC(=O)SCC/C=C/[C@@H]1CC(=O)NCc2cccc(n2)C(=O)NC(CC)C(=O)N[C@@H](C(C)C)C(=O)O1 (stereo partly drawn)
[III] C/C=C1\NC(=O)c2nc(cc(SC)n2)CNC(=O)C[C@@H](/C=C/CCSC(C)=O)OC(=O)[C@H](C)NC1=O
Order the entries by their reported GI50, beginning at the minimum. Form field (ranking): labels in requested order. III, I, II
(III: 20 nM, I: 70 nM, II: 650 nM)

----------
Tested on: Huh-7 (human hepatoma cells)
methodNotes: MTT cancer cell growth inhibition
Type: cell-based
testContext: Homo sapiens, Huh-7, 72 h, MTT, 72 hours incubation, Huh-7 cells; read-out: GI50 Huh-7
reportedEndpoint: GI50 (µM)

Use these answered entries as a reference point.
                                   molecule  reportedendpoint  resultvalue
0  C=C1NC(=O)c2ccc(SC)c(n2)CNC(=O)C[C@@H](/C=C/CCSC(C)=O)OC(=O)[C@H](C)NC1=O [Compound 212]              GI50        0.057
1  CC(=O)SCC/C=C/[C@@H]1CC(=O)NCc2cccc(n2)C(=O)NC(=C(C)C)C(=O)N[C@@H](C(C)C)C(=O)O1 [Compound 20]              GI50        0.072
2  C/C=C1\NC(=O)c2ccc(F)c(n2)CNC(=O)C[C@@H](/C=C/CCS)OC(=O)[C@H](Cc2ccc(O)cc2)NC1=O [Compound 130]              GI50        0.041

[A] C/C=C1\NC(=O)c2cccc(n2)CNC(=O)C[C@@H](/C=C/CCSC(=O)CCCCCCC)OC(=O)[C@@H](C)NC1=O [Compound 236]
[B] C/C=C1\NC(=O)c2ccc(SC)c(n2)CNC(=O)C[C@@H](/C=C/CCS)OC(=O)[C@H](C)NC1=O [Compound 234]
Lab note: record which item had the higher GI50, A or B . Return value: the label identifying the chosen record. A
(A: 0.067 µM, B: 0.042 µM)

----------
System: lncap (prostate cancer cells)
methodNotes: MTT cancer cell growth inhibition
Format: cell-based
testContext: MTT, 72 hours incubation; read-out: GI50 lnca
reportedEndpoint: GI50 (nM)

                                   compound                  subjectoftest  reportedendpoint  measureunit  resultvalue
0  C/C=C1\NC(=O)c2nc(ccc2F)CNC(=O)C[C@@H](/C=C/CCSC(C)=O)OC(=O)[C@H](C(C)C)NC1=O  lncap (prostate cancer cells)              GI50           nM           30
1  C/C=C1\NC(=O)c2cc(F)cc(n2)CNC(=O)C[C@@H](/C=C/CCSC(C)=O)OC(=O)[C@H](C(C)C)NC1=O  lncap (prostate cancer cells)              GI50           nM           20

[P] C/C=C1\NC(=O)c2ccc(F)c(n2)CNC(=O)C[C@@H](/C=C/CCSC(C)=O)OC(=O)[C@H](C(C)C)NC1=O (single isomer, unassigned)
[Q] C=C1NC(=O)c2cc(F)cc(n2)CNC(=O)C[C@@H](/C=C/CCS)OC(=O)[C@H](C(C)C)NC1=O
// compare: P vs Q , metric GI50, want the smaller Return value: the label identifying the chosen record. P
(P: 20 nM, Q: 80 nM)

----------
System: U937 (human leukemia cells)
methodNotes: MTT cancer cell growth inhibition
Format: cell-based
testContext: Homo sapiens, U-937, 72 h, MTT, 72 hours; present invention; read-out: GI50 U937, a
reportedEndpoint: GI50 (nM)

[P] C/C=C1\NC(=O)c2cccc(n2)CNC(=O)C[C@@H](/C=C/CCSC(=O)CCCCCCC)OC(=O)[C@H](CCSC)NC1=O
[Q] CCCCCCCC(=O)SCC/C=C/[C@@H]1CC(=O)NCc2cccc(n2)C(=O)NC(CC)C(=O)N[C@@H](C(C)C)C(=O)O1 (some centres unmarked)
[R] C/C=C1\NC(=O)c2cccc(n2)CNC(=O)C[C@@H](/C=C/CCSC(=O)CCCCCCC)OC(=O)[C@H](C(C)C)NC1=O
[S] C/C=C1\NC(=O)c2cccc(n2)CNC(=O)C[C@@H](/C=C/CCSC(=O)CCCCCCC)OC(=O)[C@H](Cc2ccccc2)NC1=O
[T] C/C=C1\NC(=O)c2cccc(n2)CNC(=O)C[C@@H](/C=C/CCSC(=O)CCCCCCC)OC(=O)[C@H](C)NC1=O
Rank descending by GI50: all 5 compounds from above. Form field (ranking): labels in requested order. Q, T, P, R, S
(Q: 840 nM, T: 35 nM, P: 12 nM, R: 5 nM, S: 3 nM)

----------
Tested on: BGC-823 (human gastric cancer cells)
methodNotes: MTT cancer cell growth inhibition
Format: cell-based
testContext: Homo sapiens, BGC-823, 72 h, BGC-823 cells, MTT, 72 hours incubation; read-out: GI50 BG
reportedEndpoint: GI50 (nM)

In [3]: df
Out[3]:
                                  smilesstr  resultvalue
0  C=C1NC(=O)c2cc(SC)cc(n2)CNC(=O)C[C@@H](/C=C/CCSC(C)=O)OC(=O)[C@H](C)NC1=O           70
1  C/C=C1\NC(=O)c2nc(ccc2SCC)CNC(=O)C[C@@H](/C=C/CCSC(=O)CCCCC)OC(=O)[C@H](C(C)C)NC1=O           50

[1] C/C=C1\NC(=O)c2nc(ccc2SCC)CNC(=O)C[C@@H](/C=C/CCSC(=O)CCCCCC)OC(=O)[C@H](C(C)C)NC1=O
[2] C/C=C1\NC(=O)c2ccc(SC)c(n2)CNC(=O)C[C@@H](/C=C/CCSC(C)=O)OC(=O)[C@H](Cc2ccc(O)cc2)NC1=O
[3] C/C=C1\NC(=O)c2ccc(SCCC)c(n2)CNC(=O)C[C@@H](/C=C/CCSC(=O)CCCCCCC)OC(=O)[C@H](CC)NC1=O
[4] C/C=C1\NC(=O)c2cccc(n2)CNC(=O)C[C@@H](/C=C/CCSC(=O)CCCCCCC)OC(=O)[C@H](CSCC)NC1=O
Put the entries in order of GI50, starting with the largest number. Form field (ranking): labels in requested order. 2, 1, 3, 4

[a] C/C=C1\NC(=O)c2nc(ccc2SCCC)CNC(=O)C[C@@H](/C=C/CCSC(=O)CCCCCCC)OC(=O)[C@H](CC)NC1=O
[b] C/C=C1\NC(=O)c2cc(SC)cc(n2)CNC(=O)C[C@@H](/C=C/CCSC(=O)CCCCCCC)OC(=O)[C@H](Cc2ccccc2)NC1=O
Lab note: record which item had the higher GI50, a or b . Return value: the label identifying the chosen record. b
(b: 50 nM, a: 30 nM)

[I] C/C=C1\NC(=O)c2cccc(n2)CNC(=O)C[C@@H](/C=C/CCSC(=O)CCCCCCC)OC(=O)CNC1=O
[II] C/C=C1\NC(=O)c2nc(ccc2SC)CNC(=O)C[C@@H](/C=C/CCSC(C)=O)OC(=O)[C@H](CCCCN)NC1=O
// compare: I vs II , metric GI50, want the smaller Return value: the label identifying the chosen record. I
(I: 40 nM, II: 70 nM)
